- Target system: Cathepsin D (Cat D) (Homo sapiens, UniProt P07339)
- Construct: Recombinant Cat D was expressed in CHO cells; made in house; host or cells: CHO cells
- Sequence (P07339 65-412, species assumed): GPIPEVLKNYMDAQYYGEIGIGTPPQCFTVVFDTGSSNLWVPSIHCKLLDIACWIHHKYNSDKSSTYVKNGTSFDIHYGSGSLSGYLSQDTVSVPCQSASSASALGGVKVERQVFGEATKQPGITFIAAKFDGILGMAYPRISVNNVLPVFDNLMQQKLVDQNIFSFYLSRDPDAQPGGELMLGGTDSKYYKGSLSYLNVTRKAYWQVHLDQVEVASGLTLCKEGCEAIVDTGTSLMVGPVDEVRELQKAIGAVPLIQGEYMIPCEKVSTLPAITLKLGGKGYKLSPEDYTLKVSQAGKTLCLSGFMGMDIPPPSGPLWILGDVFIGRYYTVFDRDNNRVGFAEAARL
- Assay text: In vitro enzymatic Cathepsin D (Cat D) FRET assay
- Type: biochemical
- Cond: read-out: CatD IC50
Measured property: pIC50
# pIC50 is unitless: minus log10 of the molar concentration; print number only

Q: Data request, read-out pIC50, for CC1(C)C(N)=N[C@](C)(c2cc(NC(=O)c3cc4ccccc4cn3)ccc2F)CS1(=O)=O
Result: 3.63

Further cases:
Q: Data request, read-out pIC50, for COc1cnc2c(Oc3ccc(F)c([C@]4(C)CS(=O)(=O)C(C)(C)C(N)=N4)c3)nccc2n1
Result: 3.00

Q: Same for COc1cnc2c(Nc3ccc(F)c([C@]4(CF)CS(=O)(=O)C5(CCC5)C(N)=N4)c3)nccc2c1
Result: 3.41

Q: Same for Cc1cc(Cl)cnc1C(=O)Nc1ccc(F)c([C@]2(C)CS(=O)(=O)C3(CC(F)(F)C3)C(N)=N2)c1
Result: 4.02

Q: Same for CC1(C)C(N)=N[C@](C)(c2cc(Sc3ccccn3)ccc2F)CS1(=O)=O
Result: 4.13

Q: Same for COc1cnc(C(=O)Nc2ccc(F)c([C@]3(CF)CS(=O)(=O)C(C)(C)C(N)=N3)c2)c(C)c1
Result: 3.47

Q: Same for CC1(C)C(N)=N[C@](CF)(c2cc(NC(=O)c3ccc(Cl)cn3)ccc2F)CS1(=O)=O
Result: 3.64

Q: Same for C[C@]1(F)C(N)=N[C@](C)(c2cc(NC(=O)c3ccc(F)cn3)ccc2F)CS1(=O)=O
Result: 2.91

Q: Same for CC1(C)C(N)=N[C@](C)(c2cc(Nc3ncnc4cc(Cl)cnc34)cnc2F)CS1(=O)=O
Result: 4.48
